# systemTested: Disintegrin and metalloproteinase domain-containing protein 10 (Homo sapiens)
# methodDescription: blockers of ADAM10 peptide cleavage – biochemical, QFRET, HTS, primary screen (AID 720582)
# measurementParameters: recombinant ADAM10, EDANS/DABCYL FRET peptide cleavage, 3 h; at 7 µM; active compounds read high
Hit rate of the full screen: of about 370,000 compounds, about 2,300 (0.62%) were called active. What follows is part of a selection rich in actives, with near analogues and random picks from the rest.
# cutoff 10% applies to inhibition; >= gives MET, < gives NOT MET

C=CC[C@@H](CC(=O)N[C@H](CO)Cc1ccccc1)C(=O)N[C@@H](COC(=O)[C@@H](CC=C)Cc1ccc(F)cc1)Cc1c[nH]c2ccccc12 ... NOT MET
C=CCC[C@@H](Cc1ccc(F)cc1)C(=O)O[C@H](CNC(=O)[C@H](CC=C)CC(=O)N(CCO)Cc1ccccc1)c1ccccc1 ... MET

Query: Threshold query (inhibition >= 10%) on O=C(Cc1ccc(Cl)c(Cl)c1)Nc1ccc(SC(F)F)cc1
Result: MET

Query: Threshold query (inhibition >= 10%) on Cc1ccc(CC(=O)Nc2ccc(S(=O)(=O)N3CCOCC3)cc2)cc1C
Result: NOT MET
